measurement notes: LogP by HPLC on reversed phase columns (EEC directive 79/831 Annex V.A8)
applied conditions: Table 2, formula (V); LC-UV, acidic range, 0.1% formic acid in water and acetonitrile
Documented LogP [a] across a set of molecules

Would you please look over these solved cases?
O=Cc1ccc(Oc2ccc(C(=O)C3CC3)c(C(F)(F)F)n2)cc1 [V.42]: 3.21^[a]
CC(=O)c1cnc(Oc2ccc(S(F)(F)(F)(F)F)cc2)cc1C(F)(F)F [V.03]: 4.32^[a]
CC(=O)c1cnc(Oc2ccc(C(F)(F)F)cc2)cc1C(F)(F)F [V.25]: 4.04^[a]

Entry CC(=O)c1ccc(Oc2ccc(C(F)F)cc2)nc1Cl [V.14] ; LogP [a] = 3.15^[a]

Entry CC(=O)c1ccc(Oc2ccc(C(F)(F)F)cc2)nc1C(F)(F)F [V.17] ; LogP [a] = 3.96^[a]
